- Measured Target: h-5-HT6 receptor (Homo sapiens, UniProt P50406)
- Construct: expressed in transfected cells
- Sequence (P50406 whole entry): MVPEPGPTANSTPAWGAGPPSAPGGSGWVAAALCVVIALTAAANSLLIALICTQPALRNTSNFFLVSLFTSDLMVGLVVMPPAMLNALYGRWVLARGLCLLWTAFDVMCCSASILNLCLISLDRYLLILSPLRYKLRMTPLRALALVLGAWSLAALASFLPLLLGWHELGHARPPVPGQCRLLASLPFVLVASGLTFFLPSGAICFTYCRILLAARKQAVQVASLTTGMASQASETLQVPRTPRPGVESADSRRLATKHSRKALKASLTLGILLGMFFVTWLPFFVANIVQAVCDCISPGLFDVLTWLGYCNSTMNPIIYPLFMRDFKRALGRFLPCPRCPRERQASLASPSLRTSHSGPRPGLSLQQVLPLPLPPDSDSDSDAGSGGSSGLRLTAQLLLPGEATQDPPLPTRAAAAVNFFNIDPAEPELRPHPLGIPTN
- Assay Text: 5-HT6 receptor binding assay (displacement of [3H]-LSD)
- Experimental Context: membranes of HEK293 cells expressing h-5-HT6 receptor, 1 nM [3H]-LSD; read-out: Ki(5HT6)
Where a name gives a salt, the structure may show the parent alone.
Outcome Measure: Ki

| Molecule | Outcome Measure | Result Value |
| --- | --- | --- |
| COc1ccc(N(C)S(=O)(=O)c2cccc3c2OC(F)(F)O3)cc1N1CCNCC1 [Example 23, Hydrochloride] | Ki | < 50 nM |
| COc1c(F)cc(NS(=O)(=O)c2cccc(OC(F)F)c2)cc1N1CCNCC1 [Example 9, Hydrochloride] | Ki | < 50 nM |
| COc1ccc(N(C)S(=O)(=O)c2cccc3c2OC(F)(F)O3)cc1N1CCN(C)CC1 [Example 21, Hydrochloride] | Ki | < 50 nM |
| CCN(c1ccc(OC)c(N2CCN(C)CC2)c1)S(=O)(=O)c1cccc(OC(F)F)c1 [Example 16, Hydrochloride] | Ki | < 10 nM |
| COc1ccc(NS(=O)(=O)c2cc(OC(F)F)ccc2OC)cc1N1CCNCC1 [Example 8, Hydrochloride] | Ki | < 10 nM |
| COc1ccc(NS(=O)(=O)c2ccccc2OC(F)F)cc1N1CCNCC1 [Example 14, Trifluoroacetate] | Ki | < 10 nM |
| COc1ccc(N(C)S(=O)(=O)c2cccc(OC(F)F)c2)cc1N1CCNCC1 [Example 2, Hydrochloride] | Ki | < 20 nM |
| CCN(c1ccc(OC)c(N2CCNCC2)c1)S(=O)(=O)c1cccc2c1OC(F)(F)O2 [Example 22, Hydrochloride] | Ki | < 50 nM |
